This collection of values is drawn from patent EP4715056A1.

Assay: Glass transition temperature (dynamic mechanical analyzer)
Type: physicochemical
Conditions: PVC plastic with 35 parts plasticizer; -40 to 80°C, 3°C/min, 1 Hz
Procedure: The aconitates and tributyl citrate prepared in the above examples and comparative examples were added as plasticizers to PVC resin to obtain PVC plastics. […] In the experiment, 2.5 g of plasticizer and 25 g of acetone were added to a beaker, titrated with a burette filled with deionized water, and agitated while titrating until turbidity appears, and the volume of deionized water consumed was recorded. • 4. […]
In this section, each of the compounds is paired with its reported Tg.
Expressed in °C, but write only the number.

Sample records with Tg:
[[record]]
compound = "CCCCOC(=O)C=C(CC(=O)OCCCC)C(=O)OCCCC [Example 19, tributyl aconitate]"
endpoint = "Tg"
measurement = 27.6

[[record]]
compound = "CCOC(=O)C=C(CC(=O)OCC)C(=O)OCC [Example 21, triethyl aconitate]"
endpoint = "Tg"
measurement = 28.2


Looking up CCCCOC(=O)C=C(CC(=O)OCCCC)C(=O)OCCCC [Example 34, tributyl aconitate] , I see its Tg listed as 27.7

// field: Tg; key: CCCCOC(=O)C=C(CC(=O)OCCCC)C(=O)OCCCC [Comparative Example 3, tributyl aconitate, reference compound] ; value = 28.7

---

Experiment: Tensile properties (GB/T 1040-2006): tensile modulus at 100%, elongation at break, elastic modulus
Type: physicochemical
Settings: PVC plastic with 35 parts plasticizer; 50 mm/min, 25°C
Structures can show the parent of a compound that is named as a salt.
endpoint: Tensile modulus at 100%
# output: number + unit

Examples with answers:
[[record]]
compound = "CCCCOC(=O)CC(O)(CC(=O)OCCCC)C(=O)OCCCC [Comparative Example 4, tributyl citrate, reference compound]"
measurement = "18.1 MPa"

[[record]]
compound = "CCOC(=O)C=C(CC(=O)OCC)C(=O)OCC [Example 21, triethyl aconitate]"
measurement = "15.8 MPa"

[[record]]
compound = "CCCCOC(=O)C=C(CC(=O)OCCCC)C(=O)OCCCC [Example 31, tributyl aconitate]"
measurement = "17.2 MPa"


Recorded Tensile modulus at 100% (compound CCCCOC(=O)C=C(CC(=O)OCCCC)C(=O)OCCCC [Example 30, tributyl aconitate] ): 15.8 MPa
